Below: a set of entries, each annotated with reported time constant to midway contraction of ileal strips.
- subjectOfTest: prokineticin receptor(s) of guinea pig ileal smooth muscle (ileal membrane preparation / ileum longitudinal muscle) (guinea pig)
- protocolDescription: cell-based or functional assay
Provide only the numeric value, understood in min.

Answered examples (3):
**Query** What value of measured time constant to midway contraction of ileal strips is listed for recombinant refolded human prokineticin 2 with C-terminal 6xHis-tag (ligand) AVITGACDKDSQCGGGMCCAVSIWVKSIRICTPMGKLGDSCHPLTRKVPFFGRRMHHTCPCLPGLACLRTSFNRFICLAQKHHHHHH ?
**Result** 15

**Query** Name the recorded time constant to midway contraction of ileal strips for chimeric prokineticin 21 (exons 1 and 2 of prokineticin 2, exon 3 of prokineticin 1) (ligand) AVITGACDKDSQCGGGMCCAVSIWVKSIRICTPMGKLGDSCHPLTRKVPFFRKRKHHTCPCLPNLLCSRFPDGRYRCSMDLKNINF .
**Result** 40

**Query** Given the entry chimeric prokineticin 12 (exons 1 and 2 of prokineticin 1, exon 3 of prokineticin 2) (ligand) AVITGACERDVQCGAGTCCAISLWLRGLRMCTPLGREGEECHPGSHKVPFFGRRMHHTCPCLPGLACLRTSFNRFICLAQK , report its measured time constant to midway contraction of ileal strips.
**Result** 40

Next, consider the following binder.
**Query** State the recorded time constant to midway contraction of ileal strips for this entry: recombinant refolded human prokineticin 1 with C-terminal 6xHis-tag (ligand, 125I-iodinated by the iodogen method where used as the labeled ligand; plain where used as unlabeled competitor; five disulfide bonds) AVITGACERDVQCGAGTCCAISLWLRGLRMCTPLGREGEECHPGSHKVPFFRKRKHHTCPCLPNLLCSRFPDGRYRCSMDLKNINFHHHHHH
**Result** 15
